Exercise: state measured relative viability for each of the compounds provided.
Test system: NCI-H727
Test: relative viability (nuclei count vs DMSO), 5 days (fraction); higher = more cells survive
Settings: first compound 2.53 µM
// response body must contain only the number

stdin: I would be grateful if you could share the reported relative viability for C=C1C(=O)O[C@@H](CCCCCCCC)[C@@H]1C(=O)O [C-75] + C[C@]1(O)C[C@@H](c2nc(-c3ccc4ccc(-c5ccccc5)nc4c3)c3c(N)nccn32)C1 [Linsitinib] (partner 1 µM) .
stdout: 0.183

stdin: Requested read-out: relative viability. Entry: C=C1C(=O)O[C@@H](CCCCCCCC)[C@@H]1C(=O)O [C-75] + Cc1nc(NC(=O)N2CCC[C@H]2C(N)=O)sc1-c1ccnc(C(C)(C)C(F)(F)F)c1 [Alpelisib] (partner 2 µM)
stdout: 0.579

stdin: Form field: reported relative viability of Oc1nc(-c2ccc(C(F)(F)F)cc2)nc2c1CSCC2 [XAV939] + CCNC(=O)c1noc(-c2cc(C(C)C)c(O)cc2O)c1-c1ccc(CN2CCOCC2)cc1 [Luminespib] (partner 0.01 µM)
stdout: 0.342

stdin: Record request: relative viability value, item Oc1nc(-c2ccc(C(F)(F)F)cc2)nc2c1CSCC2 [XAV939] + NC(=O)Nc1cc(-c2cccc(F)c2)sc1C(=O)N[C@H]1CCCNC1 [AZD7762] (partner 0.2 µM)
stdout: 0.783

stdin: So what's the measured relative viability for this one? C=C1C(=O)O[C@@H](CCCCCCCC)[C@@H]1C(=O)O [C-75] + O=C(c1cc(Cc2n[nH]c(=O)c3ccccc23)ccc1F)N1CCN(C(=O)C2CC2)CC1 [Olaparib] (partner 8 µM)
stdout: 0.371

* * *

Exercise: state measured relative viability for each of the compounds provided.
Test system: 201T
Assay: relative viability (nuclei count vs DMSO), 5 days (fraction); higher = more cells survive
Settings: first compound 0.05 µM
Kindly provide the number alone.

stdin: Please tell me: relative viability of CC1(C)CCC(c2ccc(Cl)cc2)=C(CN2CCN(c3ccc(C(=O)NS(=O)(=O)c4ccc(N[C@H](CCN5CCOCC5)CSc5ccccc5)c(S(=O)(=O)C(F)(F)F)c4)cc3)CC2)C1 [Navitoclax] + CS(=O)(=O)CCNCc1ccc(-c2ccc3ncnc(Nc4ccc(OCc5cccc(F)c5)c(Cl)c4)c3c2)o1 [Lapatinib] (partner 2 µM) , system 201T?
stdout: 0.992

stdin: Request body: readout relative viability, system 201T, query CC1(C)CCC(c2ccc(Cl)cc2)=C(CN2CCN(c3ccc(C(=O)NS(=O)(=O)c4ccc(N[C@H](CCN5CCOCC5)CSc5ccccc5)c(S(=O)(=O)C(F)(F)F)c4)cc3)CC2)C1 [Navitoclax] + NC(=O)Nc1cc(-c2cccc(F)c2)sc1C(=O)N[C@H]1CCCNC1 [AZD7762] (partner 0.2 µM) . Return the value.
stdout: 0.41

stdin: Recall the recorded relative viability for CC1(C)CCC(c2ccc(Cl)cc2)=C(CN2CCN(c3ccc(C(=O)NS(=O)(=O)c4ccc(N[C@H](CCN5CCOCC5)CSc5ccccc5)c(S(=O)(=O)C(F)(F)F)c4)cc3)CC2)C1 [Navitoclax] + C[C@]1(O)C[C@@H](c2nc(-c3ccc4ccc(-c5ccccc5)nc4c3)c3c(N)nccn32)C1 [Linsitinib] (partner 1 µM) with 201T and state it.
stdout: 0.95

stdin: Give recorded relative viability with 201T for the following compound: CC1(C)CCC(c2ccc(Cl)cc2)=C(CN2CCN(c3ccc(C(=O)NS(=O)(=O)c4ccc(N[C@H](CCN5CCOCC5)CSc5ccccc5)c(S(=O)(=O)C(F)(F)F)c4)cc3)CC2)C1 [Navitoclax] + O=C(c1cc(Cc2n[nH]c(=O)c3ccccc23)ccc1F)N1CCN(C(=O)C2CC2)CC1 [Olaparib] (partner 8 µM)
stdout: 0.806

stdin: Lab note: need relative viability for CC1(C)CCC(c2ccc(Cl)cc2)=C(CN2CCN(c3ccc(C(=O)NS(=O)(=O)c4ccc(N[C@H](CCN5CCOCC5)CSc5ccccc5)c(S(=O)(=O)C(F)(F)F)c4)cc3)CC2)C1 [Navitoclax] + Cc1nc(Nc2ncc(C(=O)Nc3c(C)cccc3Cl)s2)cc(N2CCN(CCO)CC2)n1 [Dasatinib] (partner 0.075 µM) on 201T, anyone have it?
stdout: 0.587

stdin: # query: relative viability | item CC1(C)CCC(c2ccc(Cl)cc2)=C(CN2CCN(c3ccc(C(=O)NS(=O)(=O)c4ccc(N[C@H](CCN5CCOCC5)CSc5ccccc5)c(S(=O)(=O)C(F)(F)F)c4)cc3)CC2)C1 [Navitoclax] + Cc1cc(Nc2cc(N3CCN(C)CC3)nc(Sc3ccc(NC(=O)C4CC4)cc3)n2)n[nH]1 [Tozasertib] (partner 0.1 µM) | system: 201T
stdout: 0.778
